- RUN DESCRIPTION: NCI Yeast Anticancer Drug Screen. Data for the sgs1 mgt1 strain (AID 161);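 note: 0% = growth of cultures given vehicle only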
- EXPERIMENTAL SETUP: S. cerevisiae sgs1 mgt1 strain; at 50.0 µM unless noted
Compounds without any hit were thinned out: in the full panel of roughly 79,000, 15% have a hit. The source made the active and inactive calls. Cut-off read from the data, not from the text of the source: active = growth inhibition above about 70%; inactive = the rest.
Outcomes: active, inactive

INSERT INTO measurements (molecule, group) VALUES
  ('CN(N)c1nc(N)c(C#N)c(C#N)c1C#N', 'inactive'),
  ('CCOC(=O)CSCC(=O)OCC', 'inactive'),
  ('O=C(O)Cc1ccc(O)cc1', 'inactive'),
  ('O=C(O)CC(O)(c1ccccc1)c1ccccc1', 'inactive'),
  ('COCS(=O)(=O)c1ccccc1', 'inactive'),
  ('CS(=O)(=O)c1cccc(C(=O)O)c1', 'inactive'),
  ('O=C(OCCCl)c1ccc(Cl)c(Cl)c1', 'inactive'),
  ('CC1(C)C2CC(O)C1CCC2=O (stereo not drawn)', 'inactive'),
  ('CC(C)C1CCC2C(CCC3C(C)(C(=O)O)CCCC23C)C1 (stereo not drawn)', 'inactive'),
  ('CC12CC[C@H](O)C(C)(C)[C@H]1CC[C@](C)(O)C2COc1ccc2ccc(=O)oc2c1 (stereo partly drawn)', 'active'),
  ('COc1ccc(C2CC(=O)N(c3ncccn3)C(=O)C2)cc1', 'inactive'),
  ('Cc1cc([N+](=O)[O-])ccc1P(=O)(O)O', 'inactive'),
  ('N#Cc1c[nH]c(=O)[nH]c1=O', 'inactive');

---

- RUN DESCRIPTION: NCI Yeast Anticancer Drug Screen. Data for the mec2-1 strain (AID 157)
- EXPERIMENTAL SETUP: S. cerevisiae mec2-1 strain, hits give high values; at 50.0 µM unless noted
- Description: Growth inhibition of yeast strains with defined genetic alterations is measured as a screen for potential anti-cancer activity. Selected strains with alterations in DNA damage repair or cell cycle control were exposed to compounds and growth inhibition was measured relative to vehicle treated controls. The strain used in this assay is mec2-1
The panel holds about 79,000 compounds, 15% with a hit somewhere; the sample as a whole holds those more often.
QUANTITY KIND: growth inhibition (%)

INSERT INTO measurements (compound, quantity_kind, measured) VALUES
  ('COc1cc2cnc3c4cc(OC(C)C)c(OC)cc4ccc3c2cc1OC', 'growth inhibition', -15.3),
  ('CCCCCCC(=O)C/C(=N/NC(N)=S)C(=O)NC1C2CC3CC(C2)CC1C3 (configuration not stated)', 'growth inhibition', -19.2),
  ('CCOC(C)C(Nc1ccc(C(=O)O)cc1)C(=O)Nc1ccc(C(=O)O)cc1 (configuration not stated)', 'growth inhibition', 2),
  ('COc1ccc(NC(=O)Nc2ccc(F)cc2)c(OC)c1', 'growth inhibition', 4.9),
  ('Cn1c2cccc3nnc4cccc(c4c32)n1C', 'growth inhibition', -9.3),
  ('O=C(NC1CCCCC1)/C(=C\c1ccccc1)NC(=O)c1ccccc1', 'growth inhibition', -48.4),
  ('O=C1NC(=O)C2(CCCC2)N1', 'growth inhibition', 8.05),
  ('O=[N+]([O-])c1cc(C(Nc2nncs2)Nc2nncs2)ccc1Cl', 'growth inhibition', 8.25),
  ('CCCCCCSC(=O)NC(C)=O', 'growth inhibition', -0.95),
  ('COc1ccccc1-n1c(=O)c(N=Nc2ccc(Br)cc2)c(O)n(-c2ccccc2C)c1=S', 'growth inhibition', 0.85),
  ('c1ccc(CC2=NCCO2)cc1', 'growth inhibition', 2.25),
  ('Cc1ccccc1C(=O)NCC(=O)O', 'growth inhibition', -28.1);

---

- RUN DESCRIPTION: NCI Yeast Anticancer Drug Screen. Data for the sgs1 mgt1 strain (AID 161);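 note: 0% = growth of cultures given vehicle only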
- EXPERIMENTAL SETUP: S. cerevisiae sgs1 mgt1 strain, hits give high values; at 50.0 µM unless noted
About 79,000 compounds went through this panel and 15% of them were active in at least one assay; those are over-represented in the sample as a whole.
QUANTITY KIND: growth inhibition (%)

INSERT INTO measurements (compound, unit_label, measured) VALUES
  ('BrCC1CN=C(c2ccccc2)O1 (stereo unspecified)', '%', 2.65),
  ('CSc1ccc2nncc(SC)c2c1', '%', 12.9),
  ('c1ccc(N=NC2(c3ccccc3)CC(c3ccccc3)=NN(c3ccccc3)C2NNc2ccccc2)cc1 (stereo unspecified)', '%', 23.8),
  ('CCc1ccccc1NC(=O)C(=O)CC(=O)c1sc(Nc2ccccc2Cl)nc1C', '%', 26),
  ('CC(C)=C(Nc1ccccc1)NC(C)C', '%', -28.4),
  ('COC(=O)C1(C(C)C(=O)c2ccccc2)NC(=S)NC(=O)C1C#N (stereo unspecified)', '%', -35.2),
  ('CN(C)S(=O)(=O)c1ccccc1C(O)(c1ccccc1)c1ccccc1 (tested in a mixture with another compound)', '%', -7.75),
  ('Cn1cc2c([N+](=O)[O-])cccc2n1', '%', 14.7),
  ('COc1cc2c(c(OC)c1OC)-c1ccc(OC)c(=O)cc1[C@@H](NC=O)CC2', '%', -22.9),
  ('CCCCCCCCCCCCCCCCCC(=O)N/N=C\c1c(O)ccc2ccccc12', '%', 4.85),
  ('CC12OC3(C)C4CC1C1(C)OC4(C)C3C(O)C21 (stereo unspecified)', '%', -3.7),
  ('CC(C)COC(=O)C(CC(C)C)NC(=O)C(C)O (stereo unspecified)', '%', -13.3),
  ('C=CCNC1=C(NC(C)=O)C(=O)c2ccccc2C1=O', '%', 4.8),
  ('N#CC1(C(=O)c2ccccc2)C=Cc2ccccc2N1C(=O)c1ccccc1 (stereo unspecified)', '%', -0.85),
  ('COC(=O)c1cc(NC(=O)Nc2cccc(C(C)=O)c2)cc(C(=O)OC)c1', '%', 25.6),
  ('CC(=O)[CH-]C(=O)c1ccccc1.CC(=O)[CH-]C(=O)c1ccccc1.CC1(C)OCC(C2OC3OC(C)(C)OC3C2[O-])O1.CC[O-].[Ti+4] (stereo unspecified)', '%', 35.5),
  ('COc1ccc2c(c1)-c1c(ccc(OC)c1O)CC(c1ccccc1)[N+](C)(C)CC2 (stereo unspecified)', '%', -5.55),
  ('Cc1ncc(C(N)=S)c(N)n1', '%', -0.15),
  ('Nc1c(Cl)ccc2c(Cl)ccnc12', '%', -7.2),
  ('CN(C)CC=C(c1ccccc1)c1ccccc1', '%', -3.3),
  ('CN(N=O)C(=O)NCCn1cnc2c(=O)[nH]cnc21', '%', -5.35),
  ('CCCCNC(=S)Nn1c(-c2ccccc2)nc2ccccc2c1=O', '%', -20.8),
  ('CCOC(=O)c1ccc(N)nc1', '%', 5.35),
  ('CN(C)N1C(=O)S/C(=C\c2ccc([N+](=O)[O-])cc2)C1=O', '%', 1.15),
  ('OC(c1ccccc1)c1ccc(C(O)c2ccccc2)cc1 (stereo unspecified)', '%', -8.85),
  ('S=C(c1ccco1)N1CCOCC1', '%', 25.1),
  ('CCC1(CC)SC=C(C)NC1=O', '%', 12.6),
  ('COc1ccc(N=N/C(=N/NC(=O)c2cc(Cl)ccc2C(=O)c2ccccc2)c2ccc(N(CCC#N)CCC#N)cc2C)cc1', '%', -32.9),
  ('CC1(C)OC2C(/C=C\C(=O)c3ccccc3)OC(n3ccc(=O)[nH]c3=O)C2O1 (stereo unspecified)', '%', 5.6),
  ('CC(CC(=O)O)(CC(=O)O)C(=O)O', '%', -28.9),
  ('CSc1nc(NC2OC(COC(C)=O)C(OC(C)=O)C(OC(C)=O)C2OC(C)=O)c(N=CC=Nc2c(NC3OC(COC(C)=O)C(OC(C)=O)C(OC(C)=O)C3OC(C)=O)nc(SC)[nH]c2=O)c(=O)[nH]1 (stereo unspecified)', '%', -13.8),
  ('CCCCCN=C(N)C(N)=NCCCCC', '%', 24.7),
  ('CC1(C)OCC(N)[C@@H](O)CO1 (stereo partly specified)', '%', 13.3),
  ('CN(C)c1ccc(C(c2ccc(N(C)C)cc2)c2ccc([N+](=O)[O-])cc2)cc1', '%', -48.3),
  ('CC(=O)c1oc2cc([N+](=O)[O-])c3ccccc3c2c1C', '%', 26.3),
  ('Fc1ccc(/C=C2/c3cc(Cl)ccc3-c3c(Cl)cc(Cl)cc32)cc1', '%', 15.7),
  ('N#CCN1CCc2ccccc2C1', '%', -6.65),
  ('CC(C)(C)OC(=O)C(=[N+]=[N-])C(=O)OC(C)(C)C', '%', 2.3),
  ('O=C1c2c(ccc3c2CCCC3)CC1Cc1ccc2c(c1)CCCC2 (stereo unspecified)', '%', -18.8),
  ('Cc1nc2ccccc2c(=O)n1NC(=O)Cc1ccccc1', '%', -7.45),
  ('NC(=O)CC[n+]1ccccc1', '%', 6.5),
  ('O=C(/C=C/c1ccc(OCc2ccccc2)cc1)c1cccc([N+](=O)[O-])c1', '%', -5.85),
  ('Cc1ccc(NC(=O)CC/C(CC(=O)C(C)(C)C)=N/NC(=O)c2cc3ccccc3cc2O)cc1C', '%', 0.35),
  ('CN(C)c1ccc(/C=C(\NC(=O)c2ccccc2)c2nc3ccccc3c(=O)o2)cc1', '%', 3.95),
  ('CCN(CC)c1ccc2c(c1)C(=O)c1ccccc1-2', '%', 14.2),
  ('COc1cc(C)c(O)c(C(=O)O)c1', '%', 2.25);
